IC50 overview
measured-on: UniProt:P32246
Sequence (P32246 1-355): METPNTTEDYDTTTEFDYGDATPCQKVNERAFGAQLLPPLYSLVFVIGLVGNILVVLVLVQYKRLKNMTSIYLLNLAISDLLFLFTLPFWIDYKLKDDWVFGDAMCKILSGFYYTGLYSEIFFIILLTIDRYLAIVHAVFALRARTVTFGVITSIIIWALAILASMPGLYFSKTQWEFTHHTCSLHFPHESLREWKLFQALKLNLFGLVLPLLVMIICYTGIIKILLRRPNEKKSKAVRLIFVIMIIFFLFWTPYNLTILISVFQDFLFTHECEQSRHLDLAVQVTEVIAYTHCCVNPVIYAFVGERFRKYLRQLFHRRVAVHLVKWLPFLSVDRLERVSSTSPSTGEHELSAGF
test-name: CCR1 chemotaxis assay or binding assay (activity given for either)
conditions: either the chemotaxis assay or binding assay; CCR1 expressing cells (THP-1 or human monocytes); read-out: Activity (IC50 class)

Example entries begin here.
[
  {
    "compound": "COc1cc(N2CCN(C(=O)Cn3ncc4c(OC)ncnc43)CC2)ccc1Cl",
    "IC50": "< 1000 nM"
  },
  {
    "compound": "COc1cc(N2CCN(C(=O)Cn3nc(CS(=O)(=O)O)c4cccnc43)CC2)ccc1Cl",
    "IC50": "1000 to 2500 nM"
  },
  {
    "compound": "COc1cc(N2CCN(C(=O)Cn3ncc4ccnc(N=[N+]=[N-])c43)CC2)ccc1Cl",
    "IC50": "< 1000 nM"
  }
]

// returns reported IC50 for input COc1cc(N2CCN(C(=O)Cn3nc(-c4nccs4)c4cccnc43)CC2)ccc1Cl [Compound 1.011]
2500 to 12500 nM

// returns reported IC50 for input "COc1cc(N2CCN(C(=O)Cn3ncc4cccnc43)CC2)c(F)cc1Cl"
< 1000 nM

// returns reported IC50 for input "COc1cc(N2CCN(C(=O)Cn3nc(C)c4cccnc43)[C@@H](C)C2)c(F)cc1Cl"
< 1000 nM

// returns reported IC50 for input "COc1cc(N2CCN(C(=O)Cn3nc(S(C)(=O)=O)c4cccnc43)CC2)ccc1Cl"
< 1000 nM

// returns reported IC50 for input "O=C(Cn1nc(-c2ncc[nH]2)c2cccnc21)N1CCN(c2cc(OCCF)c(Cl)cc2F)CC1"
< 1000 nM

###

measured-on: UniProtKB P32246
Sequence (P32246 1-355): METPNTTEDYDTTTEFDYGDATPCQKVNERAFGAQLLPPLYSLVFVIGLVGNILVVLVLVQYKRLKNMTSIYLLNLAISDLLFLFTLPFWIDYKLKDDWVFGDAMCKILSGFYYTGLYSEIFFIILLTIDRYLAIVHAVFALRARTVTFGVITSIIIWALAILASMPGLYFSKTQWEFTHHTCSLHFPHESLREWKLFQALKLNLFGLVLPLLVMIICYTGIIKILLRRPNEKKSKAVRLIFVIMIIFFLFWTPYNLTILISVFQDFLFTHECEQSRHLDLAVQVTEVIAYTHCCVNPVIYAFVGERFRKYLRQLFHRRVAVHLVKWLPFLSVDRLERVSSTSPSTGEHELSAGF
test-name: CCR1 chemotaxis assay or binding assay (activity given for either)
conditions: either the chemotaxis assay or binding assay; CCR1 expressing cells (THP-1 or human monocytes); read-out: Activity (IC50 class)
IC50 overview

Example entries begin here.
[
  {
    "smiles-text": "COc1cc(N2CCN(C(=O)Cn3ncc4ncccc43)CC2)ccc1Cl",
    "IC50": "< 1 µM"
  },
  {
    "smiles-text": "COc1cc(N2CCN(C(=O)Cn3nc(I)c4cccnc43)CC2)ccc1Cl",
    "IC50": "< 1 µM"
  },
  {
    "smiles-text": "COc1cc(N2CCN(C(=O)Cn3ncc4cccnc43)CC2)ccc1Cl",
    "IC50": "< 1 µM"
  }
]

// returns reported IC50 for input "COc1cc(N2CCN(C(=O)Cn3nc(I)c4cccnc43)[C@@H](C)C2)c(F)cc1Cl"
< 1 µM

// returns reported IC50 for input "COc1cc(N2CCN(C(=O)Cn3nc(C)c4cc(N)cnc43)CC2)ccc1Cl"
< 1 µM

// returns reported IC50 for input "COc1cc(N2CCN(C(=O)Cn3nc(CN)c4cccnc43)CC2)ccc1Cl"
1 to 2.5 µM

Entry source: patent US7777035B2
